For each record, write down the corresponding Binding of serum SARS-yellow to linear peptide (PEPSCAN-ELISA).
# Test system: antibodies in sera from SARS patients (sera 1a, 1b, 2, 6, 37, 62, London, SARS-yellow, SARS-green)
# Type: binding, human
Numbers only.

PKGFYAEGSRGGSQA: 0.5
LPKGFYAEGSRGGSQ: 0.5

Kindly consider the entry below.
[in] Find the recorded Binding of serum SARS-yellow to linear peptide (PEPSCAN-ELISA) belonging to SSRSRGNSRNSTPGS and report it.
[out] 0.5

* * *

# Tested on: control sera (pooled serum of ten healthy LUMC hospital workers; commercial negative donor pooled serum from the Dutch bloodbank)
# Assay type: binding, human
RECORDED METRIC: Binding of Control serum LUMC to linear peptides of the protein X3 of SARS-CoV Urbani

TIAEILIIIMRTFRI: 0.6
FHLVDFQVTIAEILI: 0.6

Kindly consider the entry below.
[in] Find the recorded Binding of Control serum LUMC to linear peptides of the protein X3 of SARS-CoV Urbani belonging to FRIAIWNLDVIISSI and report it.
[out] 0.6
